Experiment: First set of competitive slurry experiments (Form I-IV freebases)
Format: physicochemical
Conditions: RT and 50° C., five solvent systems
Assay Readout: relative stability of Forms I-IV freebases

{"columns": ["Molecule", "Assay Value"],
 "data": [
  ["CC(C)(O)CNc1nnc(-c2ccc(Cl)cc2O)c2ccncc12 [Form IV freebase]", "converted rapidly"],
  ["CC(C)(O)CNc1nnc(-c2ccc(Cl)cc2O)c2ccncc12 [Form I freebase]", "more stable"],
  ["CC(C)(O)CNc1nnc(-c2ccc(Cl)cc2O)c2ccncc12 [Form III freebase]", "converted rapidly"],
  ["CC(C)(O)CNc1nnc(-c2ccc(Cl)cc2O)c2ccncc12 [Form II freebase]", "more stable"]
]}
